experiment: self-splicing fitness, log relative to wild type (ln ratio); higher = more splicing; Tetrahymena group I intron in knt gene, E. coli kanamycin selection, DiMSum; sequences stand for … in CUCUCU…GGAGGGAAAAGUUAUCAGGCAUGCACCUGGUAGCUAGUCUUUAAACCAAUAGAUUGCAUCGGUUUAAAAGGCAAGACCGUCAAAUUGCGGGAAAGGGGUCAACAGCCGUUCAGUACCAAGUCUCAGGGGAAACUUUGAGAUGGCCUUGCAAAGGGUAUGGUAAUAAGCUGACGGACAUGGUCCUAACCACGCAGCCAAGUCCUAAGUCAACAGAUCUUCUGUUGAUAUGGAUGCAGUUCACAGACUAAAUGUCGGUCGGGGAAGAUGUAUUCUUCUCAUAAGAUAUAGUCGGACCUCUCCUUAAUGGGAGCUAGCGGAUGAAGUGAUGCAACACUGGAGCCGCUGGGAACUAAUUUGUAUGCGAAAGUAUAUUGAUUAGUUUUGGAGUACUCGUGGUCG; details: 30 °C;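 also: selection with 25 µg/mL kanamycin versus none on LB agar overnight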
Reported Endpoint: self-splicing fitness (ln)

>>> df
           sequence_code           reported_endpoint  assay_value
 0  UUAUAGCAAUAUUACGUGGC  self-splicing fitness (ln)        -3.14
 1  CCUGAGCAAUAUUACGAUCU  self-splicing fitness (ln)        -4.01
 2  AGCCAGCAAUAUUACGUGUG  self-splicing fitness (ln)        -3.01
 3  GGAUAGCAAUAUUACGUGUC  self-splicing fitness (ln)        -3.16
 4  ACCAAGCAAUAUUACGUACC  self-splicing fitness (ln)        -1.57
 5  CCACAGCAAUAUUACGGACA  self-splicing fitness (ln)        -3.12
 6  CCGAAGCAAUAUUACGGUUG  self-splicing fitness (ln)        -1.84
 7  GGUUAGCAAUAUUACGUGCC  self-splicing fitness (ln)           -2
 8  UCCUAGCAAUAUUACGCGCC  self-splicing fitness (ln)        -2.63
 9  AUCCAGCAAUAUUACGGCGA  self-splicing fitness (ln)        -1.02
10  UACGAGCAAUAUUACGUAAG  self-splicing fitness (ln)        -3.58
11  CUCGAGCAAUAUUACGAUGA  self-splicing fitness (ln)        -2.19
12  UGGAAGCAAUAUUACGUAAU  self-splicing fitness (ln)        -3.03
13  GGCCAGCAAUAUUACGCUCA  self-splicing fitness (ln)       -0.637
14  AGAUAGCAAUAUUACGAAUG  self-splicing fitness (ln)        -2.62
15  UCUAAGCAAUAUUACGGUGC  self-splicing fitness (ln)        -2.58
16  UACGAGCAAUAUUACGCCUU  self-splicing fitness (ln)        -3.54
17  AGAGAGCAAUAUUACGGUAU  self-splicing fitness (ln)        -3.91
18  UUGCAGCAAUAUUACGUGGG  self-splicing fitness (ln)        -3.24
19  UCAUAGCAAUAUUACGCCGA  self-splicing fitness (ln)        -0.67
20  CGAGAGCAAUAUUACGCUUA  self-splicing fitness (ln)        -2.49
21  AUACAGCAAUAUUACGCCAG  self-splicing fitness (ln)        -1.79
22  UUCGAGCAAUAUUACGCUGA  self-splicing fitness (ln)        -2.66
23  UGCGAGCAAUAUUACGGGAC  self-splicing fitness (ln)        -3.69
24  GUUUAGCAAUAUUACGUCGU  self-splicing fitness (ln)        -0.72
25  CAGCAGCAAUAUUACGAGCA  self-splicing fitness (ln)         -2.5
26  GUGAAGCAAUAUUACGUCGA  self-splicing fitness (ln)       -0.469
27  AAUUAGCAAUAUUACGUAUC  self-splicing fitness (ln)         -2.2
28  GGGUAGCAAUAUUACGGCUA  self-splicing fitness (ln)       -0.886
29  AGCUAGCAAUAUUACGCUGA  self-splicing fitness (ln)        -2.63
30  GGGCAGCAAUAUUACGUUCU  self-splicing fitness (ln)        -2.35
31  UCCUAGCAAUAUUACGUUAG  self-splicing fitness (ln)        -3.49
32  CAAGAGCAAUAUUACGUCUA  self-splicing fitness (ln)        -2.41
33  CGUCAGCAAUAUUACGUGCG  self-splicing fitness (ln)        -4.56
34  GUUCAGCAAUAUUACGAGCG  self-splicing fitness (ln)        -2.03
35  CCUAAGCAAUAUUACGGACA  self-splicing fitness (ln)         -1.7
36  CGUCAGCAAUAUUACGAUAG  self-splicing fitness (ln)       -0.505
37  CAGAAGCAAUAUUACGCAAG  self-splicing fitness (ln)        -2.45
38  AACAAGCAAUAUUACGUCGA  self-splicing fitness (ln)        -1.27
39  UAUCAGCAAUAUUACGUCCU  self-splicing fitness (ln)        -1.44
40  GAGCAGCAAUAUUACGCUCC  self-splicing fitness (ln)        -2.25
41  AUCCAGCAAUAUUACGCUCU  self-splicing fitness (ln)        0.335
42  ACGUAGCAAUAUUACGCAGA  self-splicing fitness (ln)        -3.08
43  GUGAAGCAAUAUUACGCGAC  self-splicing fitness (ln)       -0.927
44  CAGCAGCAAUAUUACGAAAC  self-splicing fitness (ln)        -3.65
45  UUCAAGCAAUAUUACGCUAU  self-splicing fitness (ln)         -2.4
46  AAUAAGCAAUAUUACGAAUU  self-splicing fitness (ln)        -1.93
47  ACGUAGCAAUAUUACGCUGA  self-splicing fitness (ln)        -1.81
48  AAAAAGCAAUAUUACGUGGC  self-splicing fitness (ln)        -3.59
49  GAAUAGCAAUAUUACGAUUC  self-splicing fitness (ln)        -2.67
50  CUUAAGCAAUAUUACGAUGU  self-splicing fitness (ln)        -3.88
51  CGGUAGCAAUAUUACGGGCG  self-splicing fitness (ln)       -0.838
52  AAUAAGCAAUAUUACGGCCC  self-splicing fitness (ln)       -0.731
53  CGUCAGCAAUAUUACGCAUC  self-splicing fitness (ln)        -2.47
54  GCUAAGCAAUAUUACGUGCA  self-splicing fitness (ln)       -0.433
